Item-by-item account of Average EC50, viability assay, Jurkat (CD45+), 5 days
Target: T1, human CD45 (human, UniProt P08575 26-1306)
T1 sequence: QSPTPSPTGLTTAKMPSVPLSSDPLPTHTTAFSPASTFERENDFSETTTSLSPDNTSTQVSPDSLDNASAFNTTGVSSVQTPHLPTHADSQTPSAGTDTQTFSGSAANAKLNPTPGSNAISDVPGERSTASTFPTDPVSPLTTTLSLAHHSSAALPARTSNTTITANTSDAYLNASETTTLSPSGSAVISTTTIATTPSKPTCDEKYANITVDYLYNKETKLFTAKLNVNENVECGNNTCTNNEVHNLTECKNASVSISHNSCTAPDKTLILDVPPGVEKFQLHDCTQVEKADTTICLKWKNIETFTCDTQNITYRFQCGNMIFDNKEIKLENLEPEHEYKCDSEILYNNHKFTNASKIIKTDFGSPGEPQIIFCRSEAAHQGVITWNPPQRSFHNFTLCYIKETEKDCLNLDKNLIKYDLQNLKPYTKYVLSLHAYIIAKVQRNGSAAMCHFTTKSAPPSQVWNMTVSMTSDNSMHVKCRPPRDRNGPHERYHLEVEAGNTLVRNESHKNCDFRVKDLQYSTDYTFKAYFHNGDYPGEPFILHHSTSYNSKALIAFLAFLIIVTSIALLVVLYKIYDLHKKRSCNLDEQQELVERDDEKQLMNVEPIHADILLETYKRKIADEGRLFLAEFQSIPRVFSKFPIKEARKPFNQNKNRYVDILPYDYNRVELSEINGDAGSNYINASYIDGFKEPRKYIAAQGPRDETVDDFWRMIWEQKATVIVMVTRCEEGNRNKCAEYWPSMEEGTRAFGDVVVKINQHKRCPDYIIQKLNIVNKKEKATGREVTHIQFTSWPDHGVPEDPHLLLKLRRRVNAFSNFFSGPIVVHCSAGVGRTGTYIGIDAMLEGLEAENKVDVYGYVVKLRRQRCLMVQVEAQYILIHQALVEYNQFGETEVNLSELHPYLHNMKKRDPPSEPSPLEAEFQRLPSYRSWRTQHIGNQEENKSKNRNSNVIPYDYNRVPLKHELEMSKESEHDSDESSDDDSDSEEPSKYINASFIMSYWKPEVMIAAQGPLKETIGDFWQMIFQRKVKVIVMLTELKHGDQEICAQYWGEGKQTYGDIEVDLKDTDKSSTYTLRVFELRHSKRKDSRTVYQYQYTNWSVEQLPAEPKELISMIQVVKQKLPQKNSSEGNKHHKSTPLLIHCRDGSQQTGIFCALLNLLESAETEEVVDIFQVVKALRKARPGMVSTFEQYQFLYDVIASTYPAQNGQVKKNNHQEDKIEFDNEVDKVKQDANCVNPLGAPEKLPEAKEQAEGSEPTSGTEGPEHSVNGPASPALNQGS
Assay: cell-based or functional assay
PROPERTY_MEASURED: Average EC50, viability assay, Jurkat (CD45+), 5 days (pM)

1. YTH24.5-B7 (antibody, V domains shown, PBD drug-linker B7 conjugated; sites and DAR not stated) VH: QVNLLQSGAALVKPGASVKLSCKASSYTFTDYYIHWVKQSHGKTLEWIGYINPKSGFTNYNEKFRRKATLTVDKSTNTAYMDISRLTSEDSATYYCTRRTGVIPMDAWGQGASVTVSS VL: DVVMTQTPVSLSVSLGGQVSISCRSSQSFVSSDGNTYLNWYLQKPGQSPQLLIYKVSNRLSGVPDRFSGSGSGTDFTLKISRVEHDDLGVYYCGQASKIPLTFGSGTKLEIKR ... 8.4
2. YTH24.5-B2 (antibody, V domains shown, PBD drug-linker B2 conjugated; sites and DAR not stated) VH: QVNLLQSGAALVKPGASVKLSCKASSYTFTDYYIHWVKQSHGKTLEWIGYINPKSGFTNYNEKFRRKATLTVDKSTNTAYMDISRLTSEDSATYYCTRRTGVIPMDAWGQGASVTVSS VL: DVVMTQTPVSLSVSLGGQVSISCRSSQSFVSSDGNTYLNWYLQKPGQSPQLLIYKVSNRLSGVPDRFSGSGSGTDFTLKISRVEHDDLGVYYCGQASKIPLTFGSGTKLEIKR ... 2.12
3. YTH24.5-B4 (antibody, V domains shown, PBD drug-linker B4 (non-cleavable) conjugated; sites and DAR not stated) VH: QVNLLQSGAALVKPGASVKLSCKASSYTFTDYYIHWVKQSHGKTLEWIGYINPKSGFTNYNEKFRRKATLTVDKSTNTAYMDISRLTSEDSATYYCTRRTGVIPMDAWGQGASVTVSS VL: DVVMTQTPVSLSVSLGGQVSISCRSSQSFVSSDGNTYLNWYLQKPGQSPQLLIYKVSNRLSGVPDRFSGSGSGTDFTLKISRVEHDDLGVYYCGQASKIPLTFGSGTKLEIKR ... 0.052
4. YTH24.5-rat IgG2b-PBD (drug-linker B1) (antibody, V domains shown, PBD dimer drug-linker B1; light chains unconjugated or attached to a single molecule of B1; sites not given; PBD dimer drug-linker B1 conjugated after TCEP reduction; heavy chains attached to up to five molecules of B1; sites not given; DAR 1.94 (preparation) / 2.00) VH: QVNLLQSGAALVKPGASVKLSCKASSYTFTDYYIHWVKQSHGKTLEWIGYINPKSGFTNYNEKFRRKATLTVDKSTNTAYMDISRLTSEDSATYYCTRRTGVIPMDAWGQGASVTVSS VL: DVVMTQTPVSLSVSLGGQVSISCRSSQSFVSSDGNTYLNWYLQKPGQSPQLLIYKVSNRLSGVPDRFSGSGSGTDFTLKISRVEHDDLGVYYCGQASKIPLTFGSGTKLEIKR ... 0.213
5. YTH54.12-B7 (antibody, V domains shown, PBD drug-linker B7 conjugated; sites and DAR not stated) VH: EVQLVESGGGLVQPGGSMKLSCAASGFTFSDYYMAWVRQAPKKGLEWVASMSFAGSSTYYGDSVKGRFTISRDNAKTTLYLQMNSLRSEDTATYYCARMYTTDYYLYWYFDFWGPGTMVTVSS VL: DVQMTQSPSYLAASPGESVSISCKASKSISNYLAWYQQKPGEANKILIYSGSTLQSGTPSRFSGSGSGTDFSLTIRNLEPEDFAVYYCQQYDEKPLTFGSGTKLEIKR ... 4.79
